Where these numbers come from: PubChem BioAssay (NCI)

Quick reference: TGI of the listed items.
System: CCRF-CEM leukemia
Experiment: NCI tumour cell line growth inhibition, 48 h
Please reply with the bare figure in µM and do not write the unit itself.

Please indicate TGI recorded for COc1cc([C@H]2Oc3c(c(O)cc4oc(-c5ccccc5)cc(=O)c34)O[C@@H]2CO)ccc1O
23.7

Please indicate TGI recorded for CC(=O)c1cccc(NC2C(N)C(NC(=O)N(C)C)(C(C)O)C(C)(O)C2(O)COC(=O)c2c(C)cccc2O)c1 (stereo not given)
0.205

Please indicate TGI recorded for CC(C)[Si]1(C(C)C)OCC2OC(n3ccc(=O)[nH]c3=O)C(O)(CO)C2O[Si](C(C)C)(C(C)C)O1 (stereo not given)
30.7

New cases:
Please indicate TGI recorded for Oc1c(CN2CCCC2)cc(COCc2ccccc2)c2cccnc12
15.4

====

System: OVCAR-3 ovarian
Assay: NCI tumour cell line growth inhibition, 48 h; in the data active = GI50 below about 0.43 µM; inactive = the rest
Please answer using one outcome listed in active, inactive

Write down the call the test reported for this molecule. Item: C=C(C)C1/C=C(/C(C)C)CC[C@]2(C)O[C@@H]2CC[C@H](C)CC1=O (stereo not given in full)
inactive

New cases:
Write down the call the test reported for this molecule. Item: CCSC1=CC(=O)c2ccccc2C1=O
inactive

Write down the call the test reported for this molecule. Item: COc1ccc(/C=C2\COc3ccc(-c4ccccc4)cc3C2=O)cc1O
inactive

====

Test system: DU-145 prostate
Assay: NCI tumour cell line growth inhibition, 48 h
quantity_name: TGI (µM)
Please reply with the bare figure in µM and do not write the unit itself.

Here is how some compounds turned out for TGI.
Please indicate TGI recorded for c1ccc(-c2nc(N3CCNCC3)c3nc(-c4ccccc4)oc3n2)cc1
3.33

Please indicate TGI recorded for Cc1[nH]c2ccccc2c1C=Nc1ccc(Oc2ccccc2)cc1
30.4

Please indicate TGI recorded for COC(=O)CCC1=C(C)c2cc3[n-]c(cc4nc(cc5[n-]c(cc1n2)c(CCC(=O)OC)c5C)C=C4C)cc3C.[Cd+2]
10.4

Please indicate TGI recorded for O=C(CCN1CCCC1)Nc1ccc2c(NCCCc3ccccc3)c3ccccc3nc2c1
2.09

Please indicate TGI recorded for C=C(Cl)C(Cl)(CBr)CCC(Cl)C(C)(C)Cl (centres undefined)
3.31

Alright, here's another compound for you.
Please indicate TGI recorded for O=C1c2cc(CCl)sc2C(=O)c2ccsc21
0.332

====

The reader will find GI50 measurements below, all made with U251 CNS.

Give GI50 for this entry on U251 CNS: Cn1ccnc1C(=O)/C=C/c1ccc(C(=O)Nc2nc3ccccc3[nH]2)cc1
0.916 µM

Give GI50 for this entry on U251 CNS: Cn1c(=O)c2[nH]c(COc3ccc(C(C)(C)C)cc3)nc2n(C)c1=O
37.5 µM

Give GI50 for this entry on U251 CNS: O=[N+]([O-])c1ccc2c(N=Nc3c(O)ccc4ccccc34)c(O)cc(S(=O)(=O)O)c2c1
12.5 µM

Alright, here's another molecule for you.
Give GI50 for this entry on U251 CNS: O=C(NNS(=O)(=O)c1cc(C(F)(F)F)cc(C(F)(F)F)c1)c1cnn(-c2ccc(Cl)cc2)c1C(F)(F)F
17.3 µM

====

System: NCI-H226 lung
Assay: NCI tumour cell line growth inhibition, 48 h
Quick reference: TGI of the listed items.

Please indicate TGI recorded for Cn1c(=O)c2[nH]c(COc3ccc(C(C)(C)C)cc3)nc2n(C)c1=O
> 100 µM

Please indicate TGI recorded for FC(F)(F)c1ccc(-c2cnc(Br)nc2NC2CCCCCC2)cc1
> 100 µM

Please indicate TGI recorded for Cn1c(O)c(C(=O)Nc2ccc([N+](=O)[O-])cc2)c(=O)n(C)c1=S
9.85 µM

New cases:
Please indicate TGI recorded for COc1nc(=O)n(C2CC(N=[N+]=[N-])C(CO)O2)cc1C (stereo unspecified)
> 100 µM

Please indicate TGI recorded for COc1cc2c(cc1OC)CCN=C2
> 100 µM

Please indicate TGI recorded for C=C(C)C1/C=C(/C(C)C)CC[C@]2(C)O[C@@H]2CC[C@H](C)CC1=O (stereo partly specified)
> 100 µM

Please indicate TGI recorded for NNC(=O)c1n[nH]nc1SSc1n[nH]nc1C(=O)NN
> 100 µM

Please indicate TGI recorded for CCNCCNc1cc(-c2ccc(F)cc2)c(C#N)c2nc3ccccc3n12
27 µM
